Source listed as paper PMC2897767.

# ASSAYED_TARGET: actin capping protein (CP), chicken α1/β1, CP_full (chicken, UniProt P13127 1-286; P14315 1-277)
# PROTOCOL_TEXT: SPR; GST-fusion protein (GST-V-1, GST-CA or GST-CD) immobilised on a CM5 chip via anti-GST antibodies (up to 200 RU), CP perfused at 20 µl/min; 20°C; 50 mM KCl, 1 mM MgCl2, 0.005% Tween-20, 10 mM imidazole pH 7.0; 1:1 fit, KD from the kinetic rate constants (steady state for several fast-dissociating mutants)
# RUN_CONDITIONS: both partners purified
VALUE_KIND: koff (s⁻¹)

| BINDER | UNIT_INFO | koff |
| --- | --- | --- |
| FDSLTVRTSKETDVVNFDDIASSENLLHLTANRPKMPGRRLPGRFNG (domain or fragment, CD2AP, human, residues 461–507; cloned into pGEX-6P-1) [GST-CD47] | s⁻¹ | 0.029 |

(I) FDSLTVRTSKETDVVNFDDIASSENLLHLTANRPKMPGRRLPGR (domain or fragment, CD2AP, human, residues 461–504; cloned into pGEX-6P-1) [GST-CD44]
(II) GST-CA76 (domain or fragment, CARMIL, mouse, residues 962–1037) FPSVRQEKRSSGLISELPSEEGRRLEHFTKLRPKRNKKQQPTQAAVCTISILPQDGEQNGLMGRVDEGVDEFFTKK
(III) GST-CA92 (domain or fragment, CARMIL, mouse, residues 962–1053) FPSVRQEKRSSGLISELPSEEGRRLEHFTKLRPKRNKKQQPTQAAVCTISILPQDGEQNGLMGRVDEGVDEFFTKKVTKMDCKRSSSRSSDA
Parameters: sort_field (koff), sort_dir (desc). Rank the items, then write their labels in that order.
I, II, III
(I: 0.033 s⁻¹, II: 0.019 s⁻¹, III: 0.0052 s⁻¹)
